- test-target: AAK1 (full length human) (Homo sapiens, UniProt Q2M2I8)
- Sequence (Q2M2I8 1-863 isoform Q2M2I8-2): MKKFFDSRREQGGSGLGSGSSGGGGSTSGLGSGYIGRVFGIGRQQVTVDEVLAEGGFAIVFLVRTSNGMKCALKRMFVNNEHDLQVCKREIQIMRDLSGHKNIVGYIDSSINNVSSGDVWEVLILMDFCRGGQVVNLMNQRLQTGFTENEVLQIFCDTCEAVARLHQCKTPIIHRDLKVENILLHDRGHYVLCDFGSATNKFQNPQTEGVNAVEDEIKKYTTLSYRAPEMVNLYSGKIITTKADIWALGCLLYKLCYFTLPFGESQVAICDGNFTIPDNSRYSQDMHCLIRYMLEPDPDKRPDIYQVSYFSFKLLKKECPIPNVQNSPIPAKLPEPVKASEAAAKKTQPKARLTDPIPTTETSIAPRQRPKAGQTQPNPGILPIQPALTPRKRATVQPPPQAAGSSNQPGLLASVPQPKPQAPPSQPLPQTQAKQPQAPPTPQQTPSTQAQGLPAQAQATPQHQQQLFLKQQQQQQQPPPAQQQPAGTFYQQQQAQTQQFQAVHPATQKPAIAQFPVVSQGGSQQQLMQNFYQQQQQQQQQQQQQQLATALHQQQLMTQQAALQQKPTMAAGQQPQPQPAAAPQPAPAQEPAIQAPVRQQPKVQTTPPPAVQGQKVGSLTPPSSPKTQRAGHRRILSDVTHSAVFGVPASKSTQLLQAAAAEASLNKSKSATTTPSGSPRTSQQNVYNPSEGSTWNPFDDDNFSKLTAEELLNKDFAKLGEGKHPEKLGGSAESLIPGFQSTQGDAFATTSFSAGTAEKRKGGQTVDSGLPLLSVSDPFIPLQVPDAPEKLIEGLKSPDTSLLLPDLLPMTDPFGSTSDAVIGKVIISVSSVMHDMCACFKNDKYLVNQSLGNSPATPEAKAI
- assay-details: HEK281 Cell-Based Assay (phospho-mu2 Western blot in HEK293F cells transfected with AAK1 and AP2M1)
- experimental-conditions: IC50 (nM), functional potency; inhibition of mu2 phosphorylation in HEK293F cells, 3 hours incubation, 5 concentrations
Sorting guide: entries reporting IC50 beneath 400 nM go in the true pile, the rest go in the false pile.

compound | test-target | group-label
CC(C)CCc1nc(NC2CC2)c2cc(-c3cnco3)ccc2n1 [Example 84] | AAK1 (full length human) (Homo sapiens, UniProt Q2M2I8) | false
COc1cc2nc([C@H](N)CC(C)C)ncc2cc1-c1cnco1 [Example 36] | AAK1 (full length human) (Homo sapiens, UniProt Q2M2I8) | true
COc1nc(CCC(C)C)nc2ccc(-c3cn[nH]c3)cc12 [Example 37] | AAK1 (full length human) (Homo sapiens, UniProt Q2M2I8) | false

Exercise: State whether 400 nM exceeds IC50 recorded for CC(C)CCc1nc(NCCN(C)C)c2cc(-c3cnco3)ccc2n1 [Example 81] .
Key: false

Exercise: Here's an entry: CC(C)CCc1nc2ccc(-c3cnco3)cc2c(=S)[nH]1 [Example 56] . Is its IC50 below 400 nM?
Key: true

Exercise: Strictly below 400 nM in IC50? CC(C)CCc1nc2ccc(-c3cnco3)cc2c(=O)[nH]1 [Example 42]
Key: true

Exercise: State whether 400 nM exceeds IC50 recorded for COc1nc(CCC(C)C)nc2ccc(-c3ccncc3)cc12 [Example 38] .
Key: false

Exercise: Strictly below 400 nM in IC50? CCc1nc(C(N)CC(C)C)nc2ccc(-c3ccncc3OC)cc12 (stereo not drawn) [Example 6]
Key: true

Exercise: Could you please tell me whether IC50 recorded for CC(C)CCc1nc(NCCO)c2cc(-c3cnco3)ccc2n1 [Example 76] is less than 400 nM?
Key: false

Exercise: Criterion: IC50 strictly below 400 nM. Is it met by CCc1nc([C@H](N)CC2CC2)nc2ccc(-c3ccncc3)cc12 [Example 70] ?
Key: true
